Biological target: Keap1/Nrf2 (Homo sapiens)
Sequence (Q16236 whole entry): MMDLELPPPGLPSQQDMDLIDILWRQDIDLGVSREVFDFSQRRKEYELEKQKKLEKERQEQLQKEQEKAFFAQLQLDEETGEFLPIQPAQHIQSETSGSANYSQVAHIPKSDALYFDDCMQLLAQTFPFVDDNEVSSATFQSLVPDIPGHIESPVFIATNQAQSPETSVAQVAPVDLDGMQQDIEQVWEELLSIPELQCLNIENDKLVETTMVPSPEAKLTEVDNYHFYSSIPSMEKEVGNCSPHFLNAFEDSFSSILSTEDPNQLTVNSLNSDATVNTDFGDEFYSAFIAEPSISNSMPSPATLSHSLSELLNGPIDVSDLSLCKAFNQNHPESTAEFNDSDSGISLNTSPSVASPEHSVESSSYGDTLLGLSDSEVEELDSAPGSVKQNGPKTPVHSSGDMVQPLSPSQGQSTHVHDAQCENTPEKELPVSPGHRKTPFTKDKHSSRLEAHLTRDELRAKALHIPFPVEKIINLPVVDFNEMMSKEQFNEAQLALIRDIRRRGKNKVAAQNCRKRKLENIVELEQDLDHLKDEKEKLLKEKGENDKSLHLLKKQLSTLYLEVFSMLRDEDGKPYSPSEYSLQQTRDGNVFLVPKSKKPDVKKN
Sequence (Q14145 whole entry): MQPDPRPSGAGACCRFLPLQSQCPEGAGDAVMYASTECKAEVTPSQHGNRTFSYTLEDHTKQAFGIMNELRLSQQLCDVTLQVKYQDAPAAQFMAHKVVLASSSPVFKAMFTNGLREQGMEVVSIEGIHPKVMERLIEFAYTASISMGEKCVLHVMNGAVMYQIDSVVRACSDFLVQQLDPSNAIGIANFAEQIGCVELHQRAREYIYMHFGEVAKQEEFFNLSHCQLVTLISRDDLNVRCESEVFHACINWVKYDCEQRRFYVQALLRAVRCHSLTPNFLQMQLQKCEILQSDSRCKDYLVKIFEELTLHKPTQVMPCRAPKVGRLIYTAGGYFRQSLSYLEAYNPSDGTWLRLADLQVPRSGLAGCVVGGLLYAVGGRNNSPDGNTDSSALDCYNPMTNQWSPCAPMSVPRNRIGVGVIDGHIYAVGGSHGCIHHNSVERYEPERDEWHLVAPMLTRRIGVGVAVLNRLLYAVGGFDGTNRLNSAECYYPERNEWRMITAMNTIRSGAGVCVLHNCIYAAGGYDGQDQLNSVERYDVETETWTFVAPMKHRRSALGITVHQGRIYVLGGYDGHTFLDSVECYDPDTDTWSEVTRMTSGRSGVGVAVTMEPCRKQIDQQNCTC
pIC50 reference
// pIC50 is dimensionless: -log10 of concentration (M)

Answered examples (5):
Input: Send back Keap1/Nrf2 (Homo sapiens) pIC50 of `C[C@@H](CC(=O)O)Nc1ccc(N(CC(=O)O)S(=O)(=O)c2ccc(F)cc2)c2ccccc12` only.
Output: 4.63

Input: Send back Keap1/Nrf2 (Homo sapiens) pIC50 of `C[C@@H](CC(=O)O)Nc1ccc(N(CC(=O)O)S(=O)(=O)c2ccc(C(F)(F)F)cc2)c2ccccc12` only.
Output: 4.78

Input: Send back Keap1/Nrf2 (Homo sapiens) pIC50 of `Cc1cc(C)c(C)c(S(=O)(=O)Nc2ccc(N[C@@H](C)CC(=O)O)c3ccccc23)c1C` only.
Output: 5.18

Input: Send back Keap1/Nrf2 (Homo sapiens) pIC50 of `COc1ccc(S(=O)(=O)N(CC(=O)O)c2ccc(N[C@@H](CC(=O)O)c3ccccc3)c3ccccc23)cc1` only.
Output: 4.86

Input: Send back Keap1/Nrf2 (Homo sapiens) pIC50 of `C[C@@H](CC(=O)O)Nc1ccc(N(CC(=O)O)S(=O)(=O)c2ccc(Cl)cc2)c2ccccc12` only.
Output: 4.98

More entries:
Input: Send back Keap1/Nrf2 (Homo sapiens) pIC50 of `C[C@@H](CC(=O)O)Nc1ccc(NS(=O)(=O)c2ccc(C(F)(F)F)cc2)c2ccccc12` only.
Output: 4.32

Input: Send back Keap1/Nrf2 (Homo sapiens) pIC50 of `CCOc1ccc(S(=O)(=O)Nc2ccc(N[C@@H](C)CC(=O)O)c3ccccc23)cc1` only.
Output: 4.48

Input: Send back Keap1/Nrf2 (Homo sapiens) pIC50 of `Cc1cc(C)c(S(=O)(=O)Nc2ccc(N[C@@H](C)CC(=O)O)c3ccccc23)c(C)c1` only.
Output: 5.64
